Test system: HCT-116
METHOD_DESCRIPTION: NCI tumour cell line growth inhibition, 48 h
Calls of active or inactive are those of the source. No stated cut-off is given here; in the data, active = GI50 up to about 1.1 µM and inactive = higher. Where a SMILES comes first, the peptide text is derived from it. The star is where a group is joined. Boc = CC(C)(C)OC(=O)*; tBu = CC(C)(C)*

MOLECULE	GI50
Cc1cccc(C)c1Nc1nc(C)c(C(=O)CC(=O)C(=O)Nc2c(C(C)C)cccc2C(C)C)s1	> 100 µM (inactive)
CC(OC(C)(C)C)C(NC(=O)C(N)CCCCNC(=O)OC(C)(C)C)C(=O)NC(Cc1ccccc1)C(=O)O (centres undefined) (H-Lys(Boc)-Thr(tBu)-Phe-OH; configuration not given here)	> 100 µM (inactive)
CCOC(=O)c1nc2cc(C(F)(F)F)ccc2nc1Nc1ccc(C(=O)NC(C(=O)OCC)C(=O)OCC)cc1	19 µM (inactive)
COc1ccc(-c2[nH]c(-c3ccc(OC)cc3)c(-c3ccccn3)c2-c2ccccn2)cc1	> 100 µM (inactive)
Oc1ccccc1/C=N/c1ccc(-c2nc3ccccc3[nH]2)cc1	53.6 µM (inactive)
COc1cc(OC)c(-c2oc3ccccc3c(=O)c2O)c(OC)c1	3.76 µM (inactive)
Cc1cc(S(=O)(=O)NC2=Nc3cccc4cccc(c34)N2)c(S)cc1Cl	18.1 µM (inactive)
CCC1(CC)C(=O)N(C(=O)c2ccccc2)N(C(=O)c2ccc(Cl)cc2)C1=O	43.9 µM (inactive)
CC1(C)OC2C(O1)[C@H]1OC(C(Cl)(Cl)Cl)=N[C@H]1C(I)[C@H]2N1C(=O)c2ccccc2C1=O (some centres undefined)	47.1 µM (inactive)

The values you see were collected from ChEMBL document CHEMBL1201862.
